Tested on: HSL
Assay: HSL mRNA expression in adipocytes (real-time PCR)
Assay type: cell-based, human
Conditions: differentiating adipocytes transfected with oligomeric compound; Table 75
Procedure: Expression of the four hallmark genes, HSL, aP2, Glut4, and PPARγ, is also measured in adipocytes transfected with oligomeric compounds of the invention. Cells are lysed on day nine post-transfection and total RNA is harvested. The amount of total RNA in each sample is determined using a Ribogreen Assay (Invitrogen Life Technologies, Carlsbad, Calif.). […]
In the oligonucleotide strings, read from the 5' end, every base follows the letter of its sugar. An asterisk marks phosphorothioate; unmarked linkages are phosphodiester. Other units and linkages are bracketed, terminal groups are in braces. A string of capitals states the bases alone. e = 2'-O-(2-methoxyethyl) (MOE); [5mC] = 5-methylcytosine
Provide the recorded HSL mRNA for the entries that follow.

Solved entries:
| substance | HSL mRNA |
| --- | --- |
| 328128 (antisense eA*eG*eT*eA*eA*e[5mC]*eT*eT*e[5mC]*eT*eT*eG*e[5mC]*eA*eG*eT*eT*eG*eG*eA) [compound 328128] | 72 percentage of untreated control (UTC) |
| 327912 (antisense eA*eA*e[5mC]*eT*eA*eT*eA*e[5mC]*eA*eA*eT*e[5mC]*eT*eA*e[5mC]*eT*eA*e[5mC]*e[5mC]*eT*e[5mC]*eA) [compound 327912] | 95 percentage of untreated control (UTC) |
| 341803 (antisense CCACACACTTCCTTACATTCCA; all 2'-MOE, all phosphorothioate, methylation of C not given here) [compound 341803] | 79 percentage of untreated control (UTC) |
| 327957 (antisense e[5mC]*eA*e[5mC]*eA*eA*eG*eT*eT*e[5mC]*eG*eG*eA*eT*e[5mC]*eT*eA*e[5mC]*eG*eG*eG*eT*eT) [compound 327957] | 15 percentage of untreated control (UTC) |

Answer for every listed entry: what is its HSL mRNA? The entries follow.
1. 341798 (antisense GCAUUAUUACUCACGGUACGA; all 2'-MOE, all phosphorothioate, methylation of C and T or U not given here) [compound 341798]
2. 328111 (antisense eT*e[5mC]*e[5mC]*eG*eA*eG*eT*e[5mC]*eG*eG*eA*eG*eG*eA*eG*eG*eA*eG*eG*eA*eA) [compound 328111]
3. 328137 (eG*eT*eA*eA*eG*e[5mC]*eG*e[5mC]*eA*eG*e[5mC]*eT*e[5mC]*e[5mC]*eA*e[5mC]*eA*eG*eG*e[5mC]*eT; anti-miR) [compound 328137]
4. 346908 (GCUUUGACAAUACUAUUGCACUG; all 2'-MOE, all phosphorothioate, methylation of C and T or U not given here) [compound 346908]
5. 341806 (antisense GCCAATATTTCTGTGCTGCTA; all 2'-MOE, all phosphorothioate, methylation of C not given here) [compound 341806]

1: 77 percentage of untreated control (UTC); 2: 77 percentage of untreated control (UTC); 3: 25 percentage of untreated control (UTC); 4: 71 percentage of untreated control (UTC); 5: 77 percentage of untreated control (UTC)

###

Provide the recorded TG (triglyceride accumulation) for the entries that follow.
test system: adipocytes; experiment: Triglyceride accumulation assay in adipocytes; assay type: cell-based, human; conditions: differentiating adipocytes transfected with oligomeric compound; Table 75
In the oligonucleotide strings, read from the 5' end, every base follows the letter of its sugar. An asterisk marks phosphorothioate; unmarked linkages are phosphodiester. Other units and linkages are bracketed, terminal groups are in braces. A string of capitals states the bases alone. e = 2'-O-(2-methoxyethyl) (MOE); [5mC] = 5-methylcytosine

Solved entries:
| substance | reported_endpoint | observed_result |
| --- | --- | --- |
| 346906 (ACAGGAUUGAGGGGGGGCCCU; all 2'-MOE, all phosphorothioate, methylation of C and T or U not given here) [compound 346906] | TG (triglyceride accumulation) | 83 percentage of untreated control (UTC) |
| 346686 (CUUCAGUUAUCACAGUACUGUA; all 2'-MOE, all phosphorothioate, methylation of C and T or U not given here) [compound 346686] | TG (triglyceride accumulation) | 73 percentage of untreated control (UTC) |
| 344611 (ACAUUUUUCGUUAUUGCUCUUGA; anti-miR; all 2'-MOE, all phosphorothioate, methylation of C and T or U not given here) [compound 344611] | TG (triglyceride accumulation) | 43 percentage of untreated control (UTC) |

Answer for every listed entry: what is its TG (triglyceride accumulation)? The entries follow.
1. 344275 (antisense UCUAGUGGUCCUAAACAUUUCA; all 2'-MOE, all phosphorothioate, methylation of C and T or U not given here) [compound 344275]
2. 344276 (antisense CAGGCAUAGGAUGACAAAGGGAA; all 2'-MOE, all phosphorothioate, methylation of C and T or U not given here) [compound 344276]
3. 328113 (antisense e[5mC]*eA*eA*eA*eA*eA*eT*eT*eA*eT*e[5mC]*eA*eG*e[5mC]*e[5mC]*eA*eG*eT*eT*eT*eA) [compound 328113]
4. 340358 (antisense CAGCUAUGCCAGCAUCUUGCC; all 2'-MOE, all phosphorothioate, methylation of C and T or U not given here) [compound 340358]
5. 328127 (antisense eA*eA*e[5mC]*eG*eA*eT*eA*eA*eA*eA*e[5mC]*eA*eT*eA*e[5mC]*eT*eT*eG*eT*e[5mC]*eA) [compound 328127]
6. 344268 (antisense ACACAAAUUCGGUUCUACAGGG; all 2'-MOE, all phosphorothioate, methylation of C and T or U not given here) [compound 344268]
7. 348119 (UCCAUAAAGUAGGAAACACUACA; anti-miR; all 2'-MOE, all phosphorothioate, methylation of C and T or U not given here) [compound 348119]
8. 327945 (antisense e[5mC]*eT*eG*eT*eT*e[5mC]*e[5mC]*eT*eG*e[5mC]*eT*eG*eA*eA*e[5mC]*eT*eG*eA*eG*e[5mC]*e[5mC]*eA) [compound 327945]

36 percentage of untreated control (UTC)
66 percentage of untreated control (UTC)
74 percentage of untreated control (UTC)
23 percentage of untreated control (UTC)
81 percentage of untreated control (UTC)
57 percentage of untreated control (UTC)
91 percentage of untreated control (UTC)
48 percentage of untreated control (UTC)

Answer for every listed entry: what is its TG (triglyceride accumulation)? The entries follow.
1. 327917 (antisense eT*e[5mC]*eA*eA*e[5mC]*eA*eT*e[5mC]*eA*eG*eT*e[5mC]*eT*eG*eA*eT*eA*eA*eG*e[5mC]*eT*eA) [compound 327917]
2. 327918 (antisense e[5mC]*eT*eA*eG*eT*eA*e[5mC]*eA*eT*e[5mC]*eA*eT*e[5mC]*eT*eA*eT*eA*e[5mC]*eT*eG*eT*eA) [compound 327918]
3. 344614 (CCAGCAGCACCUGGGGCAGU; all 2'-MOE, all phosphorothioate, methylation of C and T or U not given here) [compound 344614]
4. 327969 (antisense eT*eG*eT*eG*eA*eG*eT*eT*e[5mC]*eT*eA*e[5mC]*e[5mC]*eA*eT*eT*eG*e[5mC]*e[5mC]*eA*eA*eA) [compound 327969]
5. 327968 (antisense e[5mC]*eA*eA*eT*eG*e[5mC]*eA*eA*e[5mC]*eA*eG*e[5mC]*eA*eA*eT*eG*e[5mC]*eA*e[5mC]) [compound 327968]

26 percentage of untreated control (UTC)
65 percentage of untreated control (UTC)
89 percentage of untreated control (UTC)
34 percentage of untreated control (UTC)
94 percentage of untreated control (UTC)

Ref: patent US8178506B2
